- Tested on: SR leukemia
- assay remarks: NCI tumour cell line growth inhibition, 48 h
readout: TGI

Solved entries (count: 5):
[
  {
    "compound": "C/C(=N\\Nc1nc2cc(C)ccc2s1)c1ccccn1",
    "target or test system": "SR leukemia",
    "readout": "TGI",
    "value observed": "> 21.8 µM"
  },
  {
    "compound": "CN(NC(=O)c1ccco1)C1=NCCCCN1",
    "target or test system": "SR leukemia",
    "readout": "TGI",
    "value observed": "> 100 µM"
  },
  {
    "compound": "O=C(NC1CCCCC1)c1c(O)[nH]c(=S)[nH]c1=O",
    "target or test system": "SR leukemia",
    "readout": "TGI",
    "value observed": "> 100 µM"
  },
  {
    "compound": "COC[C@H]1C(=O)NCC(=O)N2NCCC[C@H]2C(=O)N(O)[C@H](C)C(=O)O[C@@H](C(C)C)[C@H](NC(=O)[C@](C)(O)[C@]2(O)CC[C@@H](CC(C)C)[C@H](C)O2)C(=O)N2NCCC[C@@H]2C(=O)N1O",
    "target or test system": "SR leukemia",
    "readout": "TGI",
    "value observed": "0.0555 µM"
  },
  {
    "compound": "CC1C(c2ccc(N(C)C)cc2)c2cc3c(cc2OC1N1CCCC1)OCO3 (centres undefined)",
    "target or test system": "SR leukemia",
    "readout": "TGI",
    "value observed": "> 100 µM"
  }
]

Please examine the following record next.
input: Could you tell me which TGI is on file for COC(=O)C1Cc2c(C)cccc2C1=O (centres undefined) ?
output: > 100 µM

Data provenance: PubChem BioAssay (NCI)
